Protocol summary: NCI Yeast Anticancer Drug Screen. Data for the mlh1 strain (AID 171);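 note: 0% = growth of vehicle-treated control cultures of the same strain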
Run conditions: S. cerevisiae mlh1 strain growth inhibition; at 11.0 µM; hits give high values
Method: Growth inhibition of yeast strains with defined genetic alterations is measured as a screen for potential anti-cancer activity. Selected strains with alterations in DNA damage repair or cell cycle control were exposed to compounds and growth inhibition was measured relative to vehicle treated controls. The strain used in this assay is mlh1
About 79,000 compounds went through this panel and 15% of them were active in at least one assay; those are over-represented in the sample as a whole.
Everything with growth inhibition lower than 40% is 0; everything else, including exactly 40%, is 1.

Request: Please tell me: is the compound CC1=NN(C(=O)CC(=O)NC(=O)/C=C\c2ccccc2)C(=O)C1N=Nc1ccc([N+](=O)[O-])cc1 (configuration not stated) at or over 40% in terms of growth inhibition?
Result: 0

Request: Could you please find out whether `CC1=C(C)C(=O)C2=C(OCCO2)C1=O` has growth inhibition that meets 40% or exceeds it?
Result: 0

Request: Identify whether the reported growth inhibition of the following compound is 40% or greater: `CC(C)N(CCCNc1c2ccccc2nc2cccc([N+](=O)[O-])c12)C(C)C`
Result: 1

Request: For this compound, is measured growth inhibition 40% or higher? CC(CN(C)C)C(=O)/C=C/c1ccc(Cl)c(Cl)c1 (configuration not stated)
Result: 0

Request: Does the reported growth inhibition for `CC(C)(N=Nc1ccc(Cl)cc1)[N+](=O)[O-]` fall at or above the 40% mark?
Result: 1

Request: Please tell me: is the compound `CCCNCC(=O)O[C@]1(CC)C(=O)OCc2c1cc1n(c2=O)Cc2cc3ccccc3nc2-1` at or over 40% in terms of growth inhibition?
Result: 0

Request: // inclusive: growth inhibition at least 40%? input: `Oc1ccc(N=Nc2ccc(Cl)cc2)cc1`
Result: 1

These entries and their values trace back to PubChem BioAssay (NCI).
